Dear all, this message contains pIC50 results, target or system EGFR kinase (Homo sapiens, UniProt P00533).
When answering, recall that pIC50 equals minus log10 of the concentration in mol/L, and write that number alone.

(Q) Give reported pIC50 value for O=C(Cc1csc2nc3ccccc3n12)Nc1ccc(Cl)cc1 [Compound D09]
(A) 7.00

(Q) Give reported pIC50 value for O=C(Cc1csc2nc3ccccc3n12)Nc1cccc2ccccc12 [Compound D08]
(A) 7.05

----------
In this section, each of the compounds is paired with its reported IC50.
test system: HeLa cells; experiment: MTT anti-proliferative assay, HeLa; type: cell-based, human; details: Homo sapiens, HeLa, 24 h incubation, EGFR high-expressed cell line
Give the value, in units of µM, as a plain number.

(Q) Give reported IC50 value for `O=C(Cc1csc2nc3ccccc3n12)Nc1cccc2ccccc12`
(A) 2.49

(Q) Give reported IC50 value for `O=C(Cc1csc2nc3ccccc3n12)Nc1cc(F)cc(F)c1`
(A) 32.1

(Q) Give reported IC50 value for `O=C(Cc1csc2nc3ccccc3n12)Nc1ccccc1O`
(A) 0.42

(Q) Give reported IC50 value for `O=C(Cc1csc2nc3ccccc3n12)Nc1ccc(Cl)cc1`
(A) 14.1

----------
In this section, each of the molecules is paired with its reported melting point.

(Q) Give reported melting point value for O=C(Cc1csc2nc3ccccc3n12)Nc1ccc(Cl)c(C(F)(F)F)c1 [Compound D10]
(A) 153 to 155 °C

(Q) Give reported melting point value for O=C(Cc1csc2nc3ccccc3n12)Nc1ccc(Cl)cc1Cl [Compound D17]
(A) 206 to 208 °C

(Q) Give reported melting point value for C=CCOc1ccc(NC(=O)Cc2csc3nc4ccccc4n23)cc1 [Compound D05]
(A) 196 to 198 °C

(Q) Give reported melting point value for O=C(Cc1csc2nc3ccccc3n12)Nc1cccc(O)c1 [Compound D03]
(A) 111 to 113 °C

Next:
(Q) Give reported melting point value for O=C(Cc1csc2nc3ccccc3n12)Nc1ccc(F)c(Br)c1 [Compound D13]
(A) 218 to 220 °C

Where do the numbers come from? From paper PMC6412895.
